Each record here notes measured melting point.
measurement-name: melting point

molecule	measurement-name	reported
CCCCCC#CCc1c(O)c(Cl)c(C)c(C=O)c1O [Compound 284-8]	melting point	135 to 136 °C
Cc1c(Cl)c(O)c(CCCCCCCCCCCC(=O)OC(C)C)c(O)c1C=O [Compound 215-15-COOiPr]	melting point	82 to 83 °C
COC(=O)c1c(C)cc(O)c(C/C=C(\C)CCC=C(C)C)c1O [Compound 146]	melting point	46 to 47 °C
CC(=O)c1cc(Cl)c(O)c(CCCCCCCOC(=O)C(C)(C)C)c1O [Compound 178-11-OPiv]	melting point	48 °C
CCCCCC(C)CCc1c(O)c(Cl)c(C)c(C=O)c1O (centres unmarked) [Compound 265-8]	melting point	65 to 67 °C
C/C(=C\Cc1c(O)c(Cl)cc(C=O)c1O)CC/C=C(\C)C1CC(=O)C(C)(C)O1 (centres unmarked) [Compound 209]	melting point	70 to 72 °C
Cc1c(Cl)c(O)c(/C=C/CCCCCCCOC(=O)C(C)(C)C)c(O)c1C=O [Compound 200-13-OPiv]	melting point	69 to 70 °C
Cc1c(Cl)c(O)c(CCCCCCCCCCCC(=O)O)c(O)c1C=O [Compound 215-13-COOH]	melting point	130 to 131 °C

====

Tested on: T. b. rhodesiense IL1501
Assay: Antiprotozoal effect, MIC measurement in HMI-9 culture
Type: cell-based
Settings: Trypanosoma brucei, RHODESIENSE, 24 h; Glycerol (−); bloodstream forms, 18 + 6 hours culture

compound	MIC (nM)
Cc1c(Cl)c(O)c(CCCCCCCOC(=O)C(C)(C)C)c(O)c1C=O	0.88
CC(/C=C/C(=O)C(C)(C)C)=C\CC/C(C)=C/Cc1c(O)c(Cl)c(C)c(C=O)c1O	3.7
C/C(=C\Cc1c(O)c(Cl)c(C)c(C=O)c1O)CC/C=C(\C)COC(=O)C(C)(C)C	0.39
COC(=O)CCCCCCC/C=C/c1c(O)c(Cl)c(C)c(C=O)c1O	120
Cc1c(Cl)c(O)c(CCCCCCCCCC(=O)OCC2COC(=O)O2)c(O)c1C=O (centres unmarked)	14000
Cc1c(Cl)c(O)c(C/C=C/CCCCCOC(=O)C(C)(C)C)c(O)c1C=O	0.024
CCCCCC#CCc1c(O)c(Cl)c(C)c(C=O)c1O	92
CCC(=O)OCCCCCCCCCc1c(O)c(Cl)c(C)c(C=O)c1O	125

====

Each record here notes measured pIC50.
Target: Cryptosporidium cyanide insensitive oxidase (AOX), recombinant protein (cCpAOX) (Cryptosporidium parvum, UniProt Q761U6)
Sequence (Q761U6 entry or part of it): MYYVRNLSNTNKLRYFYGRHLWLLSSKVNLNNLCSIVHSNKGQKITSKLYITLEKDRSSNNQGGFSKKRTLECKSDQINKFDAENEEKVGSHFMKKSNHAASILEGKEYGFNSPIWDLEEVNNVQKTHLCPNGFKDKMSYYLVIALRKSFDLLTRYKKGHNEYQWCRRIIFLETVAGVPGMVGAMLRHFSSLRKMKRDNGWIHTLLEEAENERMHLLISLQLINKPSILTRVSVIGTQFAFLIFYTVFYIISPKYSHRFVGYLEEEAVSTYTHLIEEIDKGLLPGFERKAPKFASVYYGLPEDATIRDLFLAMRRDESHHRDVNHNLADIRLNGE
Test: CpAOX enzyme inhibition
Type: biochemical
pIC50: −log10 of the molar value.

compound	pIC50
Cc1c(Cl)c(O)c(CCCCCCCCOC(=O)C(C)(C)C)c(O)c1C=O [Compound 215-12-OPiv]	8.57
Cc1c(Cl)c(O)c(CCC(C)CCCC(C)COC(=O)C(C)(C)C)c(O)c1C=O (stereo not shown) [Compound 235-12-OPiv]	8.64
Cc1c(Cl)c(O)c(CCCCCCCOC(=O)C(C)(C)C)c(O)c1C=O [Compound 215-11-OPiv]	8.85
Cc1c(Cl)c(O)c(CCC(C)CCCCOC(=O)C(C)(C)C)c(O)c1C=O (stereo not shown) [Compound 265-11-OPiv]	8.64
